B1: Histone-lysine N-methyltransferase SETD2, residues 2382 to 2430; numbered along this chain, Q9BYW2 (parent)
chain: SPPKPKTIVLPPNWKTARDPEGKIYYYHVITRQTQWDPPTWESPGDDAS

- Variants of: B1
- procedure-details: abundance fitness (aPCA) (normalised: wild type 0, dead -1); higher = more abundant; growth selection in yeast, the domain comes from the species named
- settings: Homo sapiens
property-label: abundance fitness
API note: the answer field is a bare number with no unit suffix.

Here are 10 variants together with their reported answers.
sequence_variant=P3T test_result=0.155
sequence_variant=T7H test_result=0.116
sequence_variant=W41H test_result=0.117
sequence_variant=E21G test_result=-0.003
sequence_variant=G45P test_result=0.233
sequence_variant=P5H test_result=-0.17
sequence_variant=Y25I test_result=-0.38
sequence_variant=S43T test_result=-0.061
sequence_variant=I30L test_result=-0.087
sequence_variant=E21F test_result=-0.115

Exercise: Fill in the blank: the reported abundance fitness of `H28W` is ____.
Solution: -1.05

Exercise: For `Q33K` then?
Solution: -0.401

Exercise: Now the variant `K15R`
Solution: 0.11

Exercise: And `K15Q` ?
Solution: -0.291

Exercise: Subsequent entry: `P11Y`
Solution: -0.666

Exercise: Continue with `S43M`
Solution: -0.102

Exercise: Also check `P38C`
Solution: -0.221

Exercise: Entry to check: `W14S`
Solution: -0.925

Exercise: Try the variant `P44W`
Solution: -0.283

Exercise: How about `Y25N` ?
Solution: -0.911

Exercise: Try `Q35N` next.
Solution: -0.875

Exercise: Another: `Y27K`
Solution: -0.261

Exercise: Try the variant `L10G`
Solution: -0.564

Exercise: Would you mind doing `P44Q` as well?
Solution: -0.067

Exercise: Would you mind doing `W14V` as well?
Solution: -0.882

Exercise: How about this variant: `A17Q`
Solution: -0.845

Exercise: `T40G` , same question.
Solution: 0.064

Exercise: Would you kindly repeat that for `P20K` ?
Solution: 0.122

Exercise: Repeat for the following variant: `K4Y`
Solution: -0.046

Exercise: Query `K6Q` next
Solution: 0.07
